Data origin: patent US20090209492A1

Provide the reported pIC50 of each item.
Study system: endothelial lipase (Homo sapiens, UniProt Q9Y5X9)
Sequence (Q9Y5X9 21-500, species assumed): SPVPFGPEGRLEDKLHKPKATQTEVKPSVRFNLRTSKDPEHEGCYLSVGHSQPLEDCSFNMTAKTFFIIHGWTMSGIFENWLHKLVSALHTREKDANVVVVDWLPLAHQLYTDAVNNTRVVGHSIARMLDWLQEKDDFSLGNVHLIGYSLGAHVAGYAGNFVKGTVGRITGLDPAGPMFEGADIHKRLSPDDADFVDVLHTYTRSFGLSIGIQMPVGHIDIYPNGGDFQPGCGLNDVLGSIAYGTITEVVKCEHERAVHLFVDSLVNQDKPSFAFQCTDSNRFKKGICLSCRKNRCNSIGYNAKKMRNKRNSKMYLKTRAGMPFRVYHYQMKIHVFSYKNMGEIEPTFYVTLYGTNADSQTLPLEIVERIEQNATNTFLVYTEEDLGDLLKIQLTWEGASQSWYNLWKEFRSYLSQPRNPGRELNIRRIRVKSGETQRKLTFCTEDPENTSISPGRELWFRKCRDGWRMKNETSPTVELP
Assay text: Endothelial lipase inhibiting activity of boronic acids
Format: biochemical
Details: aliphatic boronic acids; endothelial lipase
Note on units: pIC50 is unitless, being -log10 of a concentration expressed in mol/L.

pIC50 recorded for this compound, C=CCCCB(O)O , is 4.59

Query CCCCCCCCCCCCCCB(O)O yields pIC50 of 6.00

---

Study system: endothelial lipase (Homo sapiens, UniProt Q9Y5X9)
Assay text: Endothelial lipase inhibiting activity of boronic acids
Type: biochemical
Details: aliphatic boronic acids; 50 micromolar solution of each compound
Label t when inhibition at 50 µM is at or above 70%; anything below gets f.

In: Say whether CCCCCCCCCCCCCCB(O)O shows inhibition at 50 µM of 70% or more.
Out: t

In: Would you say CCCCCB(O)O shows inhibition at 50 µM at minimum 70%?
Out: f

In: Please tell me: is the compound CCCCCCCCCCCCCCCB(O)O at or over 70% in terms of inhibition at 50 µM?
Out: t

In: Determine whether this compound has inhibition at 50 µM no lower than 70%: CCCCC/C=C/B(O)O
Out: f

In: Kindly determine if inhibition at 50 µM recorded for CC(C)CB(O)O is above or exactly 70%.
Out: f

In: // inclusive: inhibition at 50 µM at least 70%? input: CCCCCCCCCCCCCCCCB(O)O
Out: f

In: Please tell me: is the compound CCCCCC/C=C/B(O)O at or over 70% in terms of inhibition at 50 µM?
Out: t

In: Can CCCCCCB(O)O be said to have inhibition at 50 µM at or above 70%?
Out: f

In: Item CCCCCCC/C=C/B(O)O with inhibition at 50 µM of 70% or above?
Out: t
